Test system: rodent lifetime carcinogenesis bioassay, tumor incidence TD50
ASSAY PROCEDURE: carcinogenic potency in animals, long-term in vivo studies, CPDB compilation (AID 1745844)
MEASUREMENT CONTEXT: mouse; strain Swiss; females; inhaled; site: lung; lesion: adenoma; dosed 30 weeks; study length 77 weeks
PROPERTY LABEL: TD50

What measured TD50 is associated with C=CCl on rodent lifetime carcinogenesis bioassay, tumor incidence TD50?
402 mg/kg/day

---

Tested on: rodent lifetime carcinogenesis bioassay, tumor incidence TD50
ASSAY PROCEDURE: carcinogenic potency in animals, long-term in vivo studies, CPDB compilation (AID 1745844)
MEASUREMENT CONTEXT: rat; strain Fischer 344; females; in drinking water; site: any site (literature study); lesion: several types; types named in the paper; dosed 98 weeks; study length 104 weeks
PROPERTY LABEL: TD50 (mg/kg/day)
Output spec: scalar in mg/kg/day, unitless text.

May I ask what TD50 has been recorded for Cc1ccc(S(=O)(=O)Oc2ccc(N=Nc3ccc(-c4ccc(N=Nc5c(O)ccc6cc(S(=O)(=O)O)cc(S(=O)(=O)O)c56)c(C)c4)cc3C)cc2)cc1 ?
2.31
